assay: compounds altering in vitro BBB leakiness – cell-based, FITC-avidin fluorescence, HTS, primary screen (AID 1963498); conditions: brain endothelial barrier, actives lie on both sides; further: test concentration not given here
Measured Parameter: fold change permeability
I only need the number, thanks.

Record excerpt, results attached:
1. O=C1S/C(=C\c2ccc(OCc3ccc(B(O)O)cc3)cc2)C(=O)N1Cc1ccc(F)cc1 : 1.2
2. NC(=O)CC[C@H](N)C(=O)O : 0.8
3. CN1CCC(=C2c3ccccc3C=Cc3ccccc32)CC1 : 1.1
4. CC(C)NCC(O)c1ccc(O)c(O)c1 (configuration not stated) : 1.4
5. N=C(N)c1ccccc1 : 0.9
6. CCCCCOC(=O)Nc1nc(=O)n([C@@H]2O[C@H](C)[C@@H](O)[C@H]2O)cc1F : 1.4

Kindly review the next compound as well.
Task item: For the compound shown here, `CN(C)CCC=C1c2ccccc2CCc2ccccc21` , give the reported fold change permeability.
Reply: 1.1
